EXPERIMENTAL_SYSTEM: Caspase-3 (Homo sapiens) (UniProt P42574)
Sequence (P42574 whole entry, looked up): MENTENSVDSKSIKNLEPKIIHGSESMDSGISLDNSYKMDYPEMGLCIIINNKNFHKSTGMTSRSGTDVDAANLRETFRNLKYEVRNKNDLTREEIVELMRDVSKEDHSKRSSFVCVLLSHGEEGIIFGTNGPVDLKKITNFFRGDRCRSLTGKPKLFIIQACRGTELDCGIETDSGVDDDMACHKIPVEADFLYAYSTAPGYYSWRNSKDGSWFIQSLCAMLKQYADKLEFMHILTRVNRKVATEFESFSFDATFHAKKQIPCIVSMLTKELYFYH
PROCEDURE_DETAILS: inhibition of recombinant caspase-3 activity – biochemical, luminescence, Caspase-Glo 3/7, counter-screen for UBC13 polyubiquitin inhibitor project, SAR follow-up (AID 504680)
CONDITION_DETAILS: recombinant caspase-3, Caspase-Glo luminescence, 60 min
Active and inactive are the calls of the source.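 The calls were made as follows: active = IC50 below 100 µM in the TR-FRET assay, unless also active in the caspase-3 counter assay; inactive = the rest, including compounds also active in caspase-3.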
Consider the following molecules; for each one, report its IC50.

Lookup result for COc1cccc(OCC(O)CN2CCN(CCN3C(=O)c4cccc5cccc(c45)C3=O)CC2)c1 (stereo not given) ; measured IC50: > 100 µM (inactive)

Lookup result for CC1CCCCN1C(=O)C1CCN(c2ncnc3c2nc2n3CCCCC2)CC1 (stereo not given) ; measured IC50: > 100 µM (inactive)

Lookup result for `CN(CCNC(=O)C1CCN(c2ncnc3c2nc2n3CCCCC2)CC1)Cc1ccccc1` ; measured IC50: > 100 µM (inactive)

Lookup result for `O=C(CCCCCN1C(=O)c2ccccc2C1=O)Nc1nc(C2CC2)cs1` ; measured IC50: > 100 µM (inactive)

Lookup result for `COc1cccc(NC(=O)CCCCCN2C(=O)c3cccc([N+](=O)[O-])c3C2=O)c1` ; measured IC50: > 100 µM (inactive)

###

EXPERIMENTAL_SYSTEM: Caspase-3 (Homo sapiens)
PROCEDURE_DETAILS: inhibition of recombinant caspase-3 activity – biochemical, luminescence, Caspase-Glo 3/7, counter-screen for UBC13 polyubiquitin inhibitor project, SAR follow-up (AID 504680)
CONDITION_DETAILS: recombinant caspase-3, Caspase-Glo luminescence, 60 min
Active and inactive are the calls of the source.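 How the source made its calls: active means IC50 below 100 µM in the TR-FRET assay, unless also active in the caspase-3 counter assay; inactive means the rest, including compounds also active in caspase-3.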
Consider the following molecules; for each one, report its IC50.

Result for `Cc1ccccc1NC(=S)NC(=O)CCCCCN1C(=O)c2ccccc2C1=O` , tested on Caspase-3 (Homo sapiens), IC50: > 100 µM (inactive)

Result for `CN1CCN(CCCNC(=O)c2ccc(/C=C3\Oc4ccccc4N(Cc4ccc(Cl)cc4)C3=O)cc2)CC1` , tested on Caspase-3 (Homo sapiens), IC50: > 100 µM (inactive)

Result for `COc1cccc2sc(N(CCCN(C)C)C(=O)c3ccc(S(=O)(=O)N4CCc5ccccc5C4)cc3)nc12` , tested on Caspase-3 (Homo sapiens), IC50: > 100 µM (inactive)

Result for `COc1ccc(-c2oc3ncnc(N)c3c2-c2ccccc2)cc1` , tested on Caspase-3 (Homo sapiens), IC50: > 100 µM (inactive)

Result for O=C(NCC1CCN(Cc2ccc(Cl)cc2)CC1)C1CCCN(c2ncnc3c2nc2n3CCCCC2)C1 (stereo not drawn) , tested on Caspase-3 (Homo sapiens), IC50: > 100 µM (inactive)

Result for O=C(NCC1CCN(Cc2ccc(F)cc2)CC1)C1CCCN(c2ncnc3c2nc2n3CCCCC2)C1 (stereo not drawn) , tested on Caspase-3 (Homo sapiens), IC50: > 100 µM (inactive)

Result for O=C(NCCCN1CCN(c2ccccc2)CC1)C1CCCN(c2ncnc3c2nc2n3CCCCC2)C1 (stereo not drawn) , tested on Caspase-3 (Homo sapiens), IC50: > 100 µM (inactive)

Result for `O=C(CCCn1c(=O)c2ccccc2n(Cc2ccccc2F)c1=O)NC1CCN(Cc2ccccc2)CC1` , tested on Caspase-3 (Homo sapiens), IC50: > 100 µM (inactive)

Result for Cc1ccc2c(c1)C1CN(C)CCC1N2C(=O)CCCN1C(=O)c2cccc3cccc(c23)C1=O (stereo not drawn) , tested on Caspase-3 (Homo sapiens), IC50: > 100 µM (inactive)

Result for `COc1ccc(CCNC(=O)CCCCCN2C(=O)c3ccccc3C2=O)cc1OC` , tested on Caspase-3 (Homo sapiens), IC50: > 100 µM (inactive)

Result for Cc1cccc(OCC(O)CN2CCN(CCN3C(=O)c4cccc5cccc(c45)C3=O)CC2)c1C (stereo not drawn) , tested on Caspase-3 (Homo sapiens), IC50: > 100 µM (inactive)

Result for `O=C(CCCCn1c(=O)c2ccccc2n(Cc2ccccc2)c1=O)NC1CCN(Cc2ccccc2)CC1` , tested on Caspase-3 (Homo sapiens), IC50: > 100 µM (inactive)

Result for `COc1cc2nc(N(CCCN(C)C)C(=O)c3ccc(S(=O)(=O)N4CCc5ccccc5C4)cc3)sc2cc1OC` , tested on Caspase-3 (Homo sapiens), IC50: > 100 µM (inactive)

Result for `O=C(c1ccc(S(=O)(=O)N2CCCC2)cc1)N1CCC(CN2C(=O)c3cccc4cccc(c34)C2=O)CC1` , tested on Caspase-3 (Homo sapiens), IC50: > 100 µM (inactive)

Result for `COc1ccc2sc(N(CCCN(C)C)C(=O)c3ccc(S(=O)(=O)N4CCc5ccccc5C4)cc3)nc2c1` , tested on Caspase-3 (Homo sapiens), IC50: > 100 µM (inactive)

Result for `CN(C)CCCN(C(=O)c1ccc(S(=O)(=O)N2CCCCCC2)cc1)c1nc2ccc(Br)cc2s1` , tested on Caspase-3 (Homo sapiens), IC50: > 100 µM (inactive)

Result for `CCCOC(=O)c1ccc(NC(=O)CCCCCN2C(=O)c3ccccc3C2=O)cc1` , tested on Caspase-3 (Homo sapiens), IC50: > 100 µM (inactive)

Result for `COc1ccc2sc(N(CCCN(C)C)C(=O)c3ccc(S(=O)(=O)N(C)Cc4ccccc4)cc3)nc2c1` , tested on Caspase-3 (Homo sapiens), IC50: > 100 µM (inactive)
